Where these numbers come from: PubChem BioAssay (NCI)

Entries and their measured growth follow.
- System: KM12 colon
- RUN DESCRIPTION: NCI-60 one-dose screen, 48 h (100 = growth as untreated, 0 = no growth, -100 = all killed)
- CONDITION NOTES: 10 µM unless noted
Compounds without any hit were thinned out: in the full panel of roughly 83,000, 20% have a hit.
Only the number, expressed in %, is required.

Example cases with answers are listed next.
COc1cc(/C=C/C(=O)c2ccc(NC(=O)CN3CCN(c4cc5c(cc4F)c(=O)c(C(=O)O)cn5C4CC4)CC3)cc2)cc(OC)c1OC    -65.1
Nc1ccc(S(=O)(=O)c2ccc(Cl)cc2)cc1    93.4
COc1ccc(S(=O)(=O)N2CCN(c3cc4c(cc3F)c(=O)c(C(=O)O)cn4C3CC3)CC2)c(OC)c1    91.1
CCC(c1cccc(Br)c1)C(C(=O)O)c1ccc(OC)cc1 (stereo unspecified)    83.3
O=C(Nc1ccccc1)OCC1OCOC(COC(=O)Nc2ccccc2)C1OC(=O)Nc1ccccc1 (stereo unspecified)    51.2

Can you share its growth? I mean this compound: "O=C(CN1CCOCC1)Nc1ccc(-c2nc3ccccc3s2)cc1"
107

Can you share its growth? I mean this compound: "Cc1ccc2nc(-c3c(CCCO)noc3N)[nH]c(=O)c2c1"
102

Can you share its growth? I mean this compound: "Cc1cc(C(=O)O)c(N)c(C)n1"
110

Can you share its growth? I mean this compound: CCN1C(=O)N(CC)C2Nn3c(s/c(=C\c4cccc(F)c4)c3=O)=NC21 (stereo unspecified)
49.1

Can you share its growth? I mean this compound: CCCCCCC[C@@H](O)CC(=O)N[C@H](CCCCN)C(=O)N[C@H](Cc1c[nH]c2ccccc12)C(=O)NC(CCCCN)C(=O)N[C@H](CC(C)C)C(=O)N[C@H](Cc1ccccc1)C(=O)N[C@H](CCCCN)C(=O)N[C@H](CCCCN)C(=O)N[C@H](CC(C)C)C(=O)N1CCCC1C(=O)N[C@H](CCCCN)C(=O)N[C@H](Cc1ccccc1)C(=O)N[C@H](CC(C)C)C(=O)N[C@H](Cc1c[nH]cn1)C(=O)N[C@H](CC(C)C)C(=O)N[C@H](C)C(=O)N[C@H](CCCCN)C(=O)N[C@H](CCCCN)C(=O)N[C@H](Cc1ccccc1)C(=O)O (stereo partly specified)
-63

Can you share its growth? I mean this compound: "CCCCCCCCCCCCCCCCCCOc1cccc(CCOP(=O)(O)OCC[N+](C)(C)C)c1"
50.1
